Reference for the values: patent US8293681B2

system: root rot on pea (Fusarium solani f. sp. pisi); assay: Test Example 3: seed treatment of pea, control of root rot, with reference compounds; format: in vivo; parameters: key: % = (non-budding seeds + diseased seedlings)×100/total seeds; settings: pea seeds, 10 gai/100 kg seed; untreated 53
In this section, each of the compounds is paired with its reported Incidence of disease.
Answer with the value's number alone.

INSERT INTO assay_data (compound, observable, data_value) VALUES
  ('CNC(=O)[C@H](OC)c1ccccc1COc1cc(C)ccc1C [Compound (1a)]', 'Incidence of disease', 0);

Prompt: Fill blank: measured Incidence of disease of the compound CNC(=O)C(OC)c1ccccc1COc1cc(C)ccc1C (racemic) [Compound (1b)] is ____.
Completion: 0

Prompt: Fill blank: measured Incidence of disease of the compound CNC(=O)C(OC)c1ccccc1COc1ccccc1C (stereo not shown) [Compound A, reference compound] is ____.
Completion: 7

Prompt: Fill blank: measured Incidence of disease of the compound CNC(=O)C(OC)c1ccccc1COc1cc(C)ccc1Cl (stereo not shown) [Compound B, reference compound] is ____.
Completion: 10
